All figures here come from patent US11415579B2.

For each of the molecules below, state its Rate constant with Cdk2[C177A, F80C, K278C] (k(Cdk2_mut)).
# Assayed Target: Cdk2[C177A, F80C, K278C] (Homo sapiens, UniProt P24941, C177A/F80C/K278C)
# Construct: poly-histidine; made in house; host or cells: E. coli
# Test Protocol: Kinetic thiol consumption assay with mutant Cdk2 as model thiol
# Assay type: binding
# Parameters: unit not given here
# Condition Info: 500 μM ligand, 5 μM thiol, phosphate buffer pH 8

Observe how each entry below is paired with its result.
{"columns": ["Entry Smiles", "Result"],
 "data": [
  ["C=CC(=O)N1CCOC2(CCCCC2)C1", 0.01059],
  ["C=CC(=O)Nc1cccc(C(=O)c2ccccc2)c1", 0.1192],
  ["C=CC(=O)NCc1ccccc1", 0.00402],
  ["C=CC(=O)Nc1sc2c(c1C(=O)NC1CC1)CCC2", 1.391],
  ["C=CC(=O)Nc1cccc(-c2nnnn2C2CC2)c1", 0.09413]
]}

Input line: Which Rate constant with Cdk2[C177A, F80C, K278C] (k(Cdk2_mut)) value belongs to "C=CC(=O)N1CC(OCc2cccc3ccccc23)C1" ?
Output line: 0.07903

---

# Assayed Target: Cdk2(N272C) (C177A) (Homo sapiens, UniProt P24941, C177A/N272C)
# Construct: poly-histidine; made in house; host or cells: E. coli
# Test Protocol: Kinetic thiol consumption assay with Cdk2 mutant N272C
# Type: binding
# Condition Info: Protein: Cdk2; cysteine position N272C; additional mutation C177A; in h^-1
Each record's Rate constant with Cdk2 N272C is compared with lowest = under 0.005, middle = from 0.005 up to 0.01, highest = 0.01 and over to give its class.

Input line: Field: class (Rate constant with Cdk2 N272C) — entry: C=CC(=O)N1CC2CCN(Cc3ccccc3)C2C1 (stereo not drawn)
Output line: lowest

Input line: Similarly, "C=CC(=O)NCc1ccc(F)cc1" ?
Output line: lowest

---

# Assayed Target: Cdk2(N272C) (C177A) (Homo sapiens, UniProt P24941, C177A/N272C)
# Construct: poly-histidine; made in house; host or cells: E. coli
# Test Protocol: Kinetic thiol consumption assay with Cdk2 mutant N272C
# Assay type: binding
# Design: key: rate constant with Cdk2 ÷ rate constant with model thiol (fold)
# Condition Info: Cdk2 N272, additional mutation C177A
Each record's Rate enhancement, Cdk2 N272 is compared with zone 1 = under 0.4, zone 2 = from 0.4 up to 1, zone 3 = 1 and over to give its class.

Use these answered entries as a reference point.
{"columns": ["Molecule", "Group Label"],
 "data": [
  ["C=CC(=O)N(Cc1ccco1)C12CC3CC(CC(C3)C1)C2 [CA-157]", "zone 3"],
  ["C=CC(=O)N1CCCN(Cc2noc(C3CC3)n2)CC1 [CA-079]", "zone 2"],
  ["C=CC(=O)NCCc1c(-c2ccccn2)[nH]c2ccccc12 [EL-1083]", "zone 1"]
]}

Input line: Field: class (Rate enhancement, Cdk2 N272) — entry: C=CC(=O)N1CCCCCC1c1cccs1 (centres unmarked) [EL-1063]
Output line: zone 3

Input line: Similarly, C=CC(=O)N1CC(n2cccn2)C1 [CA-173] ?
Output line: zone 2

Input line: Similarly, C=CC(=O)NCCc1c[nH]c2ccccc12 [EL-1174] ?
Output line: zone 1

Input line: Similarly, C=CC(=O)NCC1CN(C2CC2)CCO1 (centres unmarked) [CA-038] ?
Output line: zone 2

Input line: Similarly, C=CC(=O)N(C)C1C2CCOC2C1(C)C (centres unmarked) [CA-182] ?
Output line: zone 3

Input line: Similarly, C=CC(=O)N1CC2CN(Cc3ccccc3)CC2C1 (centres unmarked) [CA-207] ?
Output line: zone 1
